- Tested target: CYP1A2 (Homo sapiens, UniProt P05177)
- Sequence (P05177 whole entry): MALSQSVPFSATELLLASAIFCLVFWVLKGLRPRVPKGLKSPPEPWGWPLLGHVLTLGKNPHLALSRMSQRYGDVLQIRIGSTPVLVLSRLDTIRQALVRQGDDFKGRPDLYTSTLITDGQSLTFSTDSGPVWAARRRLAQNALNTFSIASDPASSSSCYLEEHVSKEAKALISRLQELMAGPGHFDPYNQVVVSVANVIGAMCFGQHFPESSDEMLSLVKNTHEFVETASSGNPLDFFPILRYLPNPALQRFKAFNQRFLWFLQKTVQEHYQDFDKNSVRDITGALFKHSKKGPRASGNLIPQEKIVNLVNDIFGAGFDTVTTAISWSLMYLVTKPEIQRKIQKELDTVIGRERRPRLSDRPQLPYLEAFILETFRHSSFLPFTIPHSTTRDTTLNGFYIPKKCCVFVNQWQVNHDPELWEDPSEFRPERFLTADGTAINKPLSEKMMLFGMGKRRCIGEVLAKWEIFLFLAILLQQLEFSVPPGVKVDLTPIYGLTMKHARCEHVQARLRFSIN
- Assay method text: Inhibition of CYP1A2 in HBV-infected human HepaRG cells at 10 mM using luciferin-1A2 as substrate treated for 1 hr on day 5 post-infection followed by removal of media and supplemented with fresh media and further incubated for 3 days in presence of 50 uM SKF-525A by P450-Glo chemiluminescent assay relative to control
- Assay type: ADME, tissue-based
- Measurement setup: probe luciferin-1A2, with SKF-525A 50 uM

- Smiles text: "Nn1nnc2ccccc21"
  inhibition at 1 h, 10000 µM [%]: 39.2

====

- Tested target: CYP3A4 (Homo sapiens)
- Sequence (P08684 whole entry): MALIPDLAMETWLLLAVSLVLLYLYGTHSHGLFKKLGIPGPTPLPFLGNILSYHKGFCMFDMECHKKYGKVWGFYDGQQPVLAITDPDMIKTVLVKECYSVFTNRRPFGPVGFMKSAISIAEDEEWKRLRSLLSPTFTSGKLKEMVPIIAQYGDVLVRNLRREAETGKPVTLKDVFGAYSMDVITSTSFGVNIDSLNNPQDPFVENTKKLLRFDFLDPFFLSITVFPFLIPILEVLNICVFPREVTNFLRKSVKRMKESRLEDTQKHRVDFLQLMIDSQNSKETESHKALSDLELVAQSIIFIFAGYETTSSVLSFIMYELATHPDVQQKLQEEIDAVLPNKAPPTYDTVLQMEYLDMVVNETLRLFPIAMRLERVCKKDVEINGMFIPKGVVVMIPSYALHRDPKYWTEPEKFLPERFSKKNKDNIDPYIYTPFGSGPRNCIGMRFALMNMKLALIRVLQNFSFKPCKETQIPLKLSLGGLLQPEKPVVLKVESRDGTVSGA
- Assay method text: Inhibition of CYP3A4 in HBV-infected human HepaRG cells at 10 mM using luciferin-IPA as substrate treated for 1 hr on day 5 post-infection followed by removal of media and supplemented with fresh media and further incubated for 3 days then followed by treatment for 1 hr on day 8 post-infection followed by removal of media and supplemented with fresh media and further incubated for 3 days in presence of 50 uM SKF-525A and measured on day 11 post-infection by P450-Glo chemiluminescent assay relative to control
- Assay type: ADME, tissue-based
- Measurement setup: probe luciferin-IPA, with SKF-525A 50 uM

- Smiles text: "Nn1nnc2ccccc21"
  Tested target: "CYP3A4 (Homo sapiens)"
  inhibition at 2 h, 10000 µM [%]: 90.3

====

- Tested target: CYP2C9 (Homo sapiens)
- Sequence (P11712 whole entry): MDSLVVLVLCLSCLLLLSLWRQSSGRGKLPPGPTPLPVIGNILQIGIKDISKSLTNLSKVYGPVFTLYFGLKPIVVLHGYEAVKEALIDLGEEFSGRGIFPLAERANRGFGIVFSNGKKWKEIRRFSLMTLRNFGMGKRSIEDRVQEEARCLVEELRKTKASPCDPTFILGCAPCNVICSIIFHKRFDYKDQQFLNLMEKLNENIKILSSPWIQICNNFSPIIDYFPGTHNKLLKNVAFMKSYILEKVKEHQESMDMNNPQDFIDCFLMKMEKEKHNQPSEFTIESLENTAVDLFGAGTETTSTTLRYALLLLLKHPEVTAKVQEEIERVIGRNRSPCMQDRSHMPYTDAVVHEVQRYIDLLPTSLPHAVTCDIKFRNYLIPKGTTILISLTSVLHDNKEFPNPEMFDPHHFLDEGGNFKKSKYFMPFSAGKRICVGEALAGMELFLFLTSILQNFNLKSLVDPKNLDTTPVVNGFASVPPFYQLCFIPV
- Assay method text: Inhibition of CYP2C9 in HBV-infected human HepaRG cells at 50 uM using luciferin-H as substrate treated for 1 hr on day 5 post-infection followed by removal of media and supplemented with fresh media and further incubated for 3 days by P450-Glo chemiluminescent assay relative to control
- Assay type: ADME, tissue-based
- Measurement setup: probe luciferin-H
Readout name: inhibition at 1 h, 50 µM (%)

- Smiles text: "CCCC(C(=O)OCCN(CC)CC)(c1ccccc1)c1ccccc1"
  Readout name: "inhibition at 1 h, 50 µM"
  Observed value: 21.4

Just for reference, ChEMBL document CHEMBL4725437 is where these values come from.
